- experiment_notes: activity coefficient (dimensionless); of the first substance listed, at infinite dilution; xn = mol fraction of the nth substance listed
- measurement_context: 368.15 K; 101 kPa; Liquid; Chromatography; x1 = 0
observable: activity coefficient
Format: numeric value only, no unit, no commentary.

Solved cases (3 shown):
C1CCCCC1 [cyclohexane] + CCCCn1cc[n+](C)c1.COP(=O)([O-])OC :: 11.9
C=C(C)c1ccccc1 [(1-methylethenyl)benzene] + CCCCn1cc[n+](C)c1.COP(=O)([O-])OC :: 4.77
CCCC=O [butanal] + CCCCn1cc[n+](C)c1.[Cl-] :: 5.31

Which activity coefficient is reported for this compound? C1CCCCC1 [cyclohexane] + CCCCn1cc[n+](C)c1.CS(=O)(=O)[O-]
34.5

Look up activity coefficient for this compound: C1CCCCCCC1 [cyclooctane] + CCCCn1cc[n+](C)c1.[Cl-]
75.4

----------
- experiment_notes: activity coefficient (dimensionless); of the first substance listed, at infinite dilution; xn = mol fraction of the nth substance listed
- measurement_context: 368.15 K; 101 kPa; Liquid; Chromatography; x1 = 0
observable: activity coefficient
Just the number, please.

Consider the reported activity coefficient for these molecules:
CCC[N+](=O)[O-] [1-nitropropane] + CCCCn1cc[n+](C)c1.[Cl-] :: 2.61
c1ccncc1 [pyridine] + CCCCn1cc[n+](C)c1.CS(=O)(=O)[O-] :: 10.8
CC1CCCCC1 [methylcyclohexane] + CCCCn1cc[n+](C)c1.COP(=O)([O-])OC :: 16.8

Fill in the blank: the reported activity coefficient of CCC(=O)OC [methyl propanoate] + CCCCn1cc[n+](C)c1.[Cl-] is ____.
8.09

Name the recorded activity coefficient for C1CCOC1 [tetrahydrofuran] + CCCCn1cc[n+](C)c1.COP(=O)([O-])OC .
2.84

Record request: activity coefficient value, item C1COCCO1 [1,4-dioxane] + CCCCn1cc[n+](C)c1.[Cl-]
3.55

Which measured activity coefficient value corresponds to COC(C)=O [methyl ethanoate] + CCCCn1cc[n+](C)c1.[Cl-] ?
4.89

Would you kindly share the measured activity coefficient for C=CCCCC [hex-1-ene] + CCCCn1cc[n+](C)c1.COP(=O)([O-])OC ?
13.7

Entry Cc1ccccc1C [1,2-dimethylbenzene] + CCCCn1cc[n+](C)c1.COP(=O)([O-])OC has what activity coefficient?
5.7

Sample CCOCC [diethyl ether] + CCCCn1cc[n+](C)c1.[Cl-] — what was its activity coefficient?
18.9

Tell me the measured activity coefficient of C=CCCCC [hex-1-ene] + CCCCn1cc[n+](C)c1.CS(=O)(=O)[O-] , please.
40

Recorded activity coefficient for c1ccccc1 [benzene] + CCCCn1cc[n+](C)c1.CS(=O)(=O)[O-] , please?
3.19

I would be grateful if you could share the reported activity coefficient for C1CCCCCC1 [cycloheptane] + CCCCn1cc[n+](C)c1.CS(=O)(=O)[O-] .
43.3

Quick one: activity coefficient of c1ccsc1 [thiophene] + CCCCn1cc[n+](C)c1.[Cl-] ?
2.16

Need activity coefficient of CCCC(=O)OC [methyl butanoate] + CCCCn1cc[n+](C)c1.COP(=O)([O-])OC , thanks.
5.04

Consider the molecule shown here: COC(C)(C)C [2-methoxy-2-methylpropane] + CCCCn1cc[n+](C)c1.COP(=O)([O-])OC What is its recorded activity coefficient?
7.35

Can you share its activity coefficient? I mean this molecule: CCCOCCC [dipropyl ether] + CCCCn1cc[n+](C)c1.[Cl-]
55.3

Need activity coefficient of C=CCCCCC [1-heptene] + CCCCn1cc[n+](C)c1.CS(=O)(=O)[O-] , thanks.
58.9

What value of activity coefficient has been recorded for this entry: C=COC(C)=O [vinyl acetate] + CCCCn1cc[n+](C)c1.[Cl-]
5.74
